test: Cmax in 129/sve mouse plasma at 30 mg/kg, po administered as single dose by LC-MS/MS analysis; assay type: ADME, organism-based; design: dose 30 mg/kg, route oral
readout_type: Cmax (µM)
# value in µM; strip the unit string

compound_structure_string	readout_type	test_result
NC(=O)[C@@H](CCC(F)(F)F)N(CC12CC(c3ncon3)(C1)C2)S(=O)(=O)c1ccc(Cl)cc1	Cmax	6.48

Could you now consider this next compound?
Prompt: Which Cmax is reported for this compound? NC(=O)[C@@H](CCC(F)(F)F)N(Cc1ccc(-c2ncon2)cc1F)S(=O)(=O)c1ccc(Cl)cc1
Completion: 1.41

* * *

experiment: Tmax in 129/sve mouse plasma at 30 mg/kg, po administered as single dose by LC-MS/MS analysis; assay type: ADME, organism-based; set-up: dose 30 mg/kg, route oral
readout_type: Tmax (h)
# value in h; strip the unit string

Prompt: Which Tmax is reported for this compound? NC(=O)[C@@H](CCC(F)(F)F)N(CC12CC(c3ncon3)(C1)C2)S(=O)(=O)c1ccc(Cl)cc1
Completion: 1

Prompt: Field entry: NC(=O)[C@@H](CCC(F)(F)F)N(Cc1ccc(-c2ncon2)cc1F)S(=O)(=O)c1ccc(Cl)cc1 [AVAGACESTAT]
Completion: 1

* * *

assay: AUC (0 to 18 hrs) in 129/sve mouse plasma at 30 mg/kg, po administered as single dose by LC-MS/MS analysis; type: ADME, organism-based; set-up: time < 18 hr, dose 30 mg/kg, route oral
readout_type: AUC(0-t) at 18 h (µM·h)
# value in µM·h; strip the unit string

Prompt: Which AUC(0-t) at 18 h is reported for this molecule? NC(=O)[C@@H](CCC(F)(F)F)N(Cc1ccc(-c2ncon2)cc1F)S(=O)(=O)c1ccc(Cl)cc1 [AVAGACESTAT]
Completion: 3.63

* * *

assay: Tmax in 129/sve mouse cerebrospinal fluid at 30 mg/kg, po administered as single dose by LC-MS/MS analysis; assay type: ADME, organism-based; set-up: dose 30 mg/kg, route oral
readout_type: Tmax (h)
# value in h; strip the unit string

compound_structure_string	readout_type	test_result
NC(=O)[C@@H](CCC(F)(F)F)N(Cc1ccc(-c2ncon2)cc1F)S(=O)(=O)c1ccc(Cl)cc1	Tmax	1

Prompt: Which Tmax is reported for this molecule? NC(=O)[C@@H](CCC(F)(F)F)N(CC12CC(c3ncon3)(C1)C2)S(=O)(=O)c1ccc(Cl)cc1
Completion: 1

* * *

test: Ratio of drug level in brain to plasma in Sprague-Dawley rat; format: ADME; conditions: read-out: BPR
readout_type: Kp
Just the number, please.

Prompt: Which Kp is reported for this compound? NC(=O)[C@@H](CCC(F)(F)F)N(CC12CC(c3ncon3)(C1)C2)S(=O)(=O)c1ccc(Cl)cc1
Completion: 0.61

* * *

assay: AUC (0 to 18 hrs) in 129/sve mouse cerebrospinal fluid at 30 mg/kg, po administered as single dose by LC-MS/MS analysis; format: ADME, organism-based; set-up: time < 18 hr, dose 30 mg/kg, route oral
readout_type: AUC(0-t) at 18 h (µM·h)
# value in µM·h; strip the unit string

Prompt: Which AUC(0-t) at 18 h is reported for this compound? NC(=O)[C@@H](CCC(F)(F)F)N(Cc1ccc(-c2ncon2)cc1F)S(=O)(=O)c1ccc(Cl)cc1 [AVAGACESTAT]
Completion: 0.024
